target: Serine racemase (Homo sapiens); test: Inhibition of full length human recombinant serine recemase C2DC6D mutant expressed in Escherichia coli BL21 (DE3) assessed as D-serine production after 10 mins by Saccharomyces cerevisiae Dsd1SC based D-serine detection assay
Sequence (Q9GZT4 whole entry, looked up): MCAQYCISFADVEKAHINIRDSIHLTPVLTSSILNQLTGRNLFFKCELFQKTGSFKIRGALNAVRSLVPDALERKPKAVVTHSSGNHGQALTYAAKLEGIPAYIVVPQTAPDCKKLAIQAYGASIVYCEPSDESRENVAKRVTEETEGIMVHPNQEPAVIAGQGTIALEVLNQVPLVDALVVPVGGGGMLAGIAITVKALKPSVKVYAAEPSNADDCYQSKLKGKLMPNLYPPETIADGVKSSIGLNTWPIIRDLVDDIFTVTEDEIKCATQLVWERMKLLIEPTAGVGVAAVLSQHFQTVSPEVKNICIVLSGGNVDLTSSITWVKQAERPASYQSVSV
Assay readout: pIC50
Friendly reminder that pIC50 comes from taking -log10 of the concentration in mol/L.

Incoming: Which pIC50 reading was recorded for the compound O=C(O)CC(=O)O [MALONIC ACID] ?
Outgoing: 2.88
